- ASSAY_SYSTEM: eTau2 (UniProt P10636)
- ASSAY_PROCEDURE: relative binding affinity, method not named; eTau 2
Here, each record is paired with measured pKd data.
pKd (log units): -log10 of the concentration in mol/L.

- BINDER: "humanized IPN002 variant VH3/Vk3 (antibody, V domains shown) VH: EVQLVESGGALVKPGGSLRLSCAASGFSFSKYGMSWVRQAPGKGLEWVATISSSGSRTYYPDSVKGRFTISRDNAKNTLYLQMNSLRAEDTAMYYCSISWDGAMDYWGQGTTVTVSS VL: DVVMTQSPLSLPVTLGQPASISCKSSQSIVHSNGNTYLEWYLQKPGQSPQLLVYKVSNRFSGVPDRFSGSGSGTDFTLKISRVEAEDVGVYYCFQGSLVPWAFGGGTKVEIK"
  MEASURED_RESULT: 9.33

// returns reported pKd for input humanized IPN002 variant VH1/Vk4 (antibody, V domains shown) VH: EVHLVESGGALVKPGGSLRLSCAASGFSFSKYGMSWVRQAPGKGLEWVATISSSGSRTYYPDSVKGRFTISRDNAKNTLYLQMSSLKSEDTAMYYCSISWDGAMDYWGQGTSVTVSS VL: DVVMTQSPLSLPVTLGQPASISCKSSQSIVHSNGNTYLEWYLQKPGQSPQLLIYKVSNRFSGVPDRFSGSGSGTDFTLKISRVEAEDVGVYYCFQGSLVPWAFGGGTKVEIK 9.37

// returns reported pKd for input humanized IPN002 variant VH1/Vk1 (antibody, V domains shown) VH: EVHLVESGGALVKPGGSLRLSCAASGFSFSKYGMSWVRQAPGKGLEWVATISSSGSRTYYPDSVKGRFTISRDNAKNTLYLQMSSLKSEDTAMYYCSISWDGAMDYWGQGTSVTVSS VL: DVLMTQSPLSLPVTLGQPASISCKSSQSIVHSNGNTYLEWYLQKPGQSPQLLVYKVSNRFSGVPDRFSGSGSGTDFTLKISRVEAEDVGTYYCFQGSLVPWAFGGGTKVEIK 9.33
